System: Escherichia coli TOP10;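 note: peptides expressed intracellularly from a pBAD plasmid library in pooled LB shake-flask culture, induced with 0.3% L-arabinose, DNA abundance read by NGS, three biological replicates, DESeq2 with apeglm shrinkage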
experiment.notes: shrunken log2 fold change of peptide-encoding DNA abundance (4.5 h post-induction vs induction); higher = less antimicrobial activity (less host growth inhibition)
test.parameters: time post-induction: 4.5 h; library: site-saturation at positions 5, 18, 19, 20
Decide using shrunken log2 fold change: a value greater than or equal to 0.06 is met, a smaller one is not met.

{"columns": ["seq.text", "class.name"],
 "data": [
  ["RRIRIRPPRLPRPRPRPQEHPRP", "not met"],
  ["RRIRQRPPRLPRPRPRPPQVPRP", "met"],
  ["RRIRMRPPRLPRPRPRPISGPRP", "not met"],
  ["RRIRMRPPRLPRPRPRPVTQPRP", "met"],
  ["RRIRCRPPRLPRPRPRPSHTPRP", "not met"],
  ["RRIRSRPPRLPRPRPRPWVFPRP", "met"],
  ["RRIRHRPPRLPRPRPRPLKTPRP", "not met"],
  ["RRIRRRPPRLPRPRPRPLPEPRP", "met"],
  ["RRIRFRPPRLPRPRPRPSKMPRP", "not met"],
  ["RRIRMRPPRLPRPRPRPMHCPRP", "not met"],
  ["RRIRDRPPRLPRPRPRPTTNPRP", "met"]
]}
